- PROTOCOL SUMMARY: Inhibition of butter milk Xanthine oxidase using xanthine as substrate preincubated for 3 mins by spectrophotometry
Class (by IC50) -- low group = under 5 nM, middle group = from 5 nM up to 10 nM, high group = 10 nM and over

# count of solved cases: 5
COMPOUND	CLASS
CC(=O)NCCn1cc(C#N)c2cc(-c3nc(C)c(C(=O)O)s3)ccc21	middle group
COCC(C)n1cc(C#N)c2cc(-c3nc(C)c(C(=O)O)s3)ccc21 (stereo unspecified)	middle group
Cc1nc(-c2ccc3c(c2)c(C#N)cn3Cc2ccc(F)cc2F)sc1C(=O)O	middle group
Cc1nc(-c2ccc3c(c2)c(C#N)cn3CCS(C)(=O)=O)sc1C(=O)O	high group
Cc1nc(-c2ccc(OCC(C)C)c(C#N)c2)sc1C(=O)O	low group

State the band of Cc1nc(-c2ccc3c(c2)c(C#N)cn3CC(C)C)sc1C(=O)O
middle group

Place this compound in its band: Cc1nc(-c2ccc3c(c2)c(Cl)cn3CC(C)C)sc1C(=O)O
middle group

Band for Cc1nc(-c2ccc3c(c2)c(Cl)cn3C(C)C)sc1C(=O)O ?
middle group

State the band of Cc1nc(-c2ccc3c(ccn3CC(C)C)c2)sc1C(=O)O
high group

Lab note: which band did Cc1nc(-c2ccc3c(c2)c(C#N)cn3Cc2ccccc2)sc1C(=O)O land in?
low group

In plain terms, what class is Cc1nc(-c2ccc3c(c2)c(C#N)c(C)n3C(C)C)sc1C(=O)O ?
high group

Which IC50 band matches CC(C)n1cc(C#N)c2cc(-c3nc(C(F)(F)F)c(C(=O)O)s3)ccc21 ?
high group

====

- PROTOCOL SUMMARY: Volume of distribution in Sprague-Dawley rat at 2 mg/kg, iv
- Format: ADME, organism-based
- Set-up: dose 2 mg/kg, route intravenous
- COND: in vivo
OBSERVED PROPERTY: Vd (L/kg)
Respond with the bare value in L/kg.

// query Vd value for entry Cc1nc(-c2ccc3c(c2)c(C#N)cn3C(C)C)sc1C(=O)O
0.635

====

- PROTOCOL SUMMARY: Clearance in Sprague-Dawley rat at 2 mg/kg, iv
- Format: ADME, organism-based
- Parameters: dose 2 mg/kg, route intravenous
- COND: in vivo
OBSERVED PROPERTY: clearance (mL/min/kg)
Write the value in mL/min/kg as a bare number.

Field request: clearance | item: Cc1nc(-c2ccc3c(c2)c(C#N)cn3C(C)C)sc1C(=O)O
2.69

====

- PROTOCOL SUMMARY: Oral bioavailability in Sprague-Dawley rat at 10 mg/kg
- Assay type: ADME, organism-based
- COND: in vivo
OBSERVED PROPERTY: bioavailability (%)
Give just the number in %; leave the unit off.

Looking for the measured bioavailability of Cc1nc(-c2ccc3c(c2)c(C#N)cn3C(C)C)sc1C(=O)O , can you help?
84.3

====

- PROTOCOL SUMMARY: Cytotoxicity against primary rat hepatocytes
- Type: cell-based, Hepatocyte
OBSERVED PROPERTY: CC50 (µM)
State just the number; it will be interpreted in µM.

MOLECULAR STRING	CC50 [µM]
Cc1nc(-c2ccc3c(c2)c(C#N)cn3CC(C)C)sc1C(=O)O	82

Please turn your attention to the following entry.
Any idea what CC50 was measured for Cc1nc(-c2ccc3c(c2)c(C#N)cn3C(C)C)sc1C(=O)O ?
200
